System: DU-145
Test: Growth inhibition of human DU145 cells after 48 hrs by sulforhodamine B assay
Format: functional
Conditions: DU-145, 48 h
outcome_measure: GI50 (nM)

{"columns": ["smiles_entry", "outcome_measure", "unit_abbreviation", "recorded_measurement"],
 "data": [
  ["COc1ccc(-c2c(-c3cc4c(c(OC)c3OC)OCO4)noc2N)cc1", "GI50", "nM", 487],
  ["COc1ccc(-c2c(-c3cc(OC)c(OC)c(OC)c3)noc2N)cc1", "GI50", "nM", 13.5],
  ["COc1ccc(-c2c(-c3cc(OC)c4c(c3)OCO4)noc2N)cc1", "GI50", "nM", 47.2],
  ["COc1ccc(-c2noc(N)c2-c2cc(OC)c3c(c2)OCO3)cc1", "GI50", "nM", 3110],
  ["COc1ccc(-c2c(-c3cc(OC)c4c(c3)OCCO4)noc2N)cc1", "GI50", "nM", 32],
  ["COc1ccc(-c2onc(N)c2-c2cc(OC)c3c(c2)OCO3)cc1", "GI50", "nM", 3990]
]}

====

Experiment: Growth inhibition of human EKVX cells after 48 hrs by sulforhodamine B assay
Type: functional
GI50 listing for selected compounds.

{"columns": ["smiles_entry", "GI50 (µM)"],
 "data": [
  ["COc1ccc(/C=C\\c2cc(OC)c(OC)c(OC)c2)cc1O", 0.0857],
  ["COc1ccc(-c2c(-c3cc4c(c(OC)c3OC)OCO4)noc2N)cc1", 23.6],
  ["COc1ccc(-c2c(-c3cc(OC)c4c(c3)OCO4)noc2N)cc1", 10.7],
  ["COc1ccc(-c2c(-c3cc(OC)c(OC)c(OC)c3)noc2N)cc1", 15.2],
  ["COc1ccc(-c2c(-c3cc(OC)c4c(c3)OCCO4)noc2N)cc1", 0.0353],
  ["COc1ccc(-c2onc(N)c2-c2cc(OC)c3c(c2)OCO3)cc1", 6.58]
]}

====

Test system: M14
Assay: Growth inhibition of human M14 cells after 48 hrs by sulforhodamine B assay
Format: functional
Details: M14, 48 h
GI50 listing for selected compounds.

{"columns": ["smiles_entry", "measured_target", "readout_relation", "GI50 [nM]"],
 "data": [
  ["COc1ccc(-c2c(-c3cc(OC)c4c(c3)OCO4)noc2N)cc1", "M14", "=", 32.3],
  ["COc1ccc(-c2noc(N)c2-c2cc(OC)c3c(c2)OCO3)cc1", "M14", "=", 1300],
  ["COc1ccc(-c2c(-c3cc(OC)c4c(c3)OCCO4)noc2N)cc1", "M14", "<", 10],
  ["COc1ccc(-c2c(-c3cc4c(c(OC)c3OC)OCO4)noc2N)cc1", "M14", "=", 244],
  ["COc1ccc(-c2c(-c3cc(OC)c(OC)c(OC)c3)noc2N)cc1", "M14", "<", 10],
  ["COc1ccc(-c2onc(N)c2-c2cc(OC)c3c(c2)OCO3)cc1", "M14", "=", 1400]
]}

====

GI50 listing for selected compounds.
Test system: NCI-H322M
Assay: Growth inhibition of human NCI-H322M cells after 48 hrs by sulforhodamine B assay
Type: functional

{"columns": ["smiles_entry", "GI50 / µM"],
 "data": [
  ["COc1ccc(-c2c(-c3cc(OC)c4c(c3)OCCO4)noc2N)cc1", 25.4],
  ["COc1ccc(-c2onc(N)c2-c2cc(OC)c3c(c2)OCO3)cc1", 5.98],
  ["COc1ccc(-c2c(-c3cc(OC)c(OC)c(OC)c3)noc2N)cc1", 0.0567],
  ["COc1ccc(/C=C\\c2cc(OC)c(OC)c(OC)c2)cc1O", 0.00745],
  ["COc1ccc(-c2noc(N)c2-c2cc(OC)c3c(c2)OCO3)cc1", 6.66],
  ["COc1ccc(-c2c(-c3cc4c(c(OC)c3OC)OCO4)noc2N)cc1", 0.625]
]}

====

GI50 listing for selected compounds.
Test system: U-251
Experiment: Growth inhibition of human U251 cells after 48 hrs by sulforhodamine B assay
Format: functional
Details: U-251, 48 h

{"columns": ["smiles_entry", "measured_target", "GI50"],
 "data": [
  ["COc1ccc(-c2onc(N)c2-c2cc(OC)c3c(c2)OCO3)cc1", "U-251", "2310 nM"],
  ["COc1ccc(-c2c(-c3cc(OC)c4c(c3)OCCO4)noc2N)cc1", "U-251", "14.8 nM"],
  ["COc1ccc(/C=C\\c2cc(OC)c(OC)c(OC)c2)cc1O", "U-251", "4.03 nM"],
  ["COc1ccc(-c2c(-c3cc(OC)c(OC)c(OC)c3)noc2N)cc1", "U-251", "< 10 nM"],
  ["COc1ccc(-c2c(-c3cc4c(c(OC)c3OC)OCO4)noc2N)cc1", "U-251", "359 nM"],
  ["COc1ccc(-c2c(-c3cc(OC)c4c(c3)OCO4)noc2N)cc1", "U-251", "30.8 nM"]
]}

====

EC listing for selected compounds.
System: Paracentrotus lividus
Experiment: Antimitotic activity in sea urchin fertilized egg assessed as cleavage arrest treated at 8 to 20 mins post-fertilization measured at 2.5 to 5.5 hrs post-fertilization
Assay type: functional

{"columns": ["smiles_entry", "measured_target", "readout_relation", "EC [µM]"],
 "data": [
  ["COc1ccc(-c2onc(NC(C)=O)c2-c2ccc(Cl)cc2)cc1", "Paracentrotus lividus", ">", 4],
  ["COc1ccc(-c2c(NC(C)=O)noc2-c2cccc(OC)c2)cc1", "Paracentrotus lividus", ">", 4],
  ["COc1ccc(/C=C\\c2cc(OC)c3c(c2)OCO3)cc1O", "Paracentrotus lividus", "=", 0.01],
  ["COc1ccc(-c2c(NC(C)=O)noc2-c2cc(OC)c3c(c2)OCCO3)cc1", "Paracentrotus lividus", ">", 4],
  ["COc1ccc(-c2onc(NC(C)=O)c2-c2ccc([N+](=O)[O-])cc2)cc1", "Paracentrotus lividus", ">", 4],
  ["COc1ccc(-c2onc(NC(C)=O)c2-c2cc(OC)c(OC)c(OC)c2)cc1", "Paracentrotus lividus", ">", 4],
  ["COc1ccc(-c2c(NC(C)=O)noc2-c2cc(OC)c3c(c2OC)OCO3)cc1", "Paracentrotus lividus", ">", 4],
  ["COc1ccc(-c2c(-c3cc(OC)c(OC)c(OC)c3)noc2N(C(C)=O)C(C)=O)cc1", "Paracentrotus lividus", "=", 0.2],
  ["COc1ccc(C(=O)Nc2noc(-c3ccc(OC)cc3)c2-c2cc(OC)c(OC)c(OC)c2)cc1", "Paracentrotus lividus", ">", 4],
  ["COc1ccc(-c2c(-c3cc(OC)c4c(c3)OCO4)noc2N(C(C)=O)C(C)=O)cc1", "Paracentrotus lividus", "=", 0.1],
  ["COc1ccc(-c2c(-c3cc4c(c(OC)c3OC)OCO4)noc2N)cc1", "Paracentrotus lividus", "=", 0.2],
  ["COc1ccc(-c2c(-c3cc(OC)c(OC)c(OC)c3)noc2N)cc1", "Paracentrotus lividus", "=", 0.005],
  ["COc1ccc(-c2noc(N)c2-c2cc(OC)c(OC)c(OC)c2)cc1", "Paracentrotus lividus", "=", 0.01],
  ["COc1ccc(-c2onc(N)c2-c2cc3c(c(OC)c2OC)OCO3)cc1", "Paracentrotus lividus", ">", 4],
  ["COc1ccc(-c2c(NC(C)=O)noc2-c2cc(OC)c(OC)c(OC)c2)cc1", "Paracentrotus lividus", ">", 4],
  ["COc1ccc(-c2onc(N)c2-c2cc(OC)c(OC)c(OC)c2)cc1", "Paracentrotus lividus", "=", 0.02],
  ["COc1ccc(-c2onc(N)c2-c2cc(OC)c3c(c2)OCO3)cc1", "Paracentrotus lividus", ">", 4],
  ["COc1ccc(-c2noc(N)c2-c2cc(OC)c3c(c2)OCO3)cc1", "Paracentrotus lividus", "=", 2],
  ["COc1ccc(-c2c(-c3cc(OC)c4c(c3OC)OCO4)noc2N(C(C)=O)C(C)=O)cc1", "Paracentrotus lividus", "=", 2],
  ["COc1ccc(-c2noc(N)c2-c2cc(OC)c3c(c2OC)OCO3)cc1", "Paracentrotus lividus", ">", 4],
  ["COc1ccc(-c2onc(NC(C)=O)c2-c2ccc(OC)cc2)cc1", "Paracentrotus lividus", ">", 4],
  ["COc1ccc(-c2noc(N)c2-c2ccc(Cl)cc2)cc1", "Paracentrotus lividus", ">", 4]
]}

====

GI50 listing for selected compounds.
Tested on: LOX IMVI
Assay: Growth inhibition of human LOXIMVI cells after 48 hrs by sulforhodamine B assay
Assay type: functional

{"columns": ["smiles_entry", "measured_target", "unit_abbreviation", "readout_relation", "GI50"],
 "data": [
  ["COc1ccc(/C=C\\c2cc(OC)c(OC)c(OC)c2)cc1O", "LOX IMVI", "nM", "=", 3.25],
  ["COc1ccc(-c2c(-c3cc(OC)c4c(c3)OCO4)noc2N)cc1", "LOX IMVI", "nM", "=", 57.9],
  ["COc1ccc(-c2c(-c3cc(OC)c(OC)c(OC)c3)noc2N)cc1", "LOX IMVI", "nM", "<", 10],
  ["COc1ccc(-c2c(-c3cc(OC)c4c(c3)OCCO4)noc2N)cc1", "LOX IMVI", "nM", "=", 11.2],
  ["COc1ccc(-c2c(-c3cc4c(c(OC)c3OC)OCO4)noc2N)cc1", "LOX IMVI", "nM", "=", 523],
  ["COc1ccc(-c2onc(N)c2-c2cc(OC)c3c(c2)OCO3)cc1", "LOX IMVI", "nM", "=", 3260]
]}
